A collection of compounds and their measured Emax
- system under test: human D1 receptor (Homo sapiens (Human))
- Sequence (P21728 whole entry): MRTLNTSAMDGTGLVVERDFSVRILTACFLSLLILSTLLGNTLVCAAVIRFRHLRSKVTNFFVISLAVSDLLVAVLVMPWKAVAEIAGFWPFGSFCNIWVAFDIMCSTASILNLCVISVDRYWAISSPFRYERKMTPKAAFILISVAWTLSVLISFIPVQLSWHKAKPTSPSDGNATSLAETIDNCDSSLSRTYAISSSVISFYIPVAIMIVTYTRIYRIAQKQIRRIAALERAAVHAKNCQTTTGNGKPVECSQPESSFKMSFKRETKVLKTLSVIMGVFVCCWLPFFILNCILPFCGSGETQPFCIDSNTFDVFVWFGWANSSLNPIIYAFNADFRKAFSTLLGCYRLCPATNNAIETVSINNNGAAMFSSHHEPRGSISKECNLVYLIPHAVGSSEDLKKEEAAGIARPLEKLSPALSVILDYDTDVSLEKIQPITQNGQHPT
- assay procedure: Human D1 Receptor PAM Assay (cAMP HTRF, potentiator mode with EC20 dopamine)
- Assay type: cell-based
- conditions used: fitted top of curve; 0% = EC20 dopamine, 100% = 5 μM dopamine; read-out: % Top (% Potentiation)
# value in %; strip the unit string

Previously resolved entries follow.
{"columns": ["compound structure", "value kind", "recorded measurement"],
 "data": [
  ["C[C@H]1c2cccc(-c3cn[nH]c3)c2C[C@H](CO)N1C(=O)Cc1ccc(F)cc1Cl", "Emax", 77.1],
  ["C[C@H]1c2cccc(-c3cn[nH]c3)c2C[C@H](CO)N1C(=O)Cc1cccc(F)c1F", "Emax", 72.6],
  ["C[C@H]1c2cccc(-c3cn[nH]c3)c2C[C@H](CO)N1C(=O)Cc1cc(F)ccc1F", "Emax", 75.5],
  ["C[C@H]1c2cccc(-c3cnn(C)c3)c2C[C@H](CO)N1C(=O)Cc1c(Cl)cccc1Cl", "Emax", 91.4],
  ["C[C@H]1c2cccc(-c3cnn(CCO)c3)c2C[C@H](CO)N1C(=O)Cc1ccccc1Cl", "Emax", 79.1],
  ["C[C@H]1c2cccc(-c3cn[nH]c3)c2C[C@H](CO)N1C(=O)Cc1c(F)cccc1F", "Emax", 78.1],
  ["C[C@H]1c2cccc(-c3cnn(C4COC4)c3)c2C[C@H](CO)N1C(=O)Cc1c(F)cccc1Cl", "Emax", 80.4],
  ["C[C@H]1c2cccc(-c3cn[nH]c3)c2C[C@H](CO)N1C(=O)Cc1ccccc1F", "Emax", 89.8]
]}

According to the records, this compound C[C@H]1c2cccc(-c3cn[nH]c3)c2C[C@H](CO)N1C(=O)Cc1cc(F)ccc1Cl displays Emax of 79.8

According to the records, this compound C[C@H]1c2cccc(-c3cn[nH]c3)c2C[C@H](CO)N1C(=O)Cc1c(F)cccc1Cl displays Emax of 81.5

According to the records, this compound C[C@H]1c2cccc(-c3cnn(C4CC4)c3)c2C[C@H](CO)N1C(=O)Cc1c(Cl)cccc1Cl displays Emax of 88.1

According to the records, this compound C[C@H]1c2cccc(-c3cnn(C)c3)c2C[C@H](CO)N1C(=O)Cc1ccccc1Cl displays Emax of 82.4

According to the records, this compound CCn1cc(-c2cccc3c2C[C@H](CO)N(C(=O)Cc2c(Cl)cccc2Cl)[C@H]3C)cn1 displays Emax of 91.2

According to the records, this compound C[C@H]1c2cccc(-c3cn[nH]c3)c2C[C@H](CO)N1C(=O)Cc1c(Cl)cccc1Cl displays Emax of 75.9
